pKi by entry:
Molecular target: D3 receptors (Chlorocebus aethiops)
Sequence (P52703 whole entry): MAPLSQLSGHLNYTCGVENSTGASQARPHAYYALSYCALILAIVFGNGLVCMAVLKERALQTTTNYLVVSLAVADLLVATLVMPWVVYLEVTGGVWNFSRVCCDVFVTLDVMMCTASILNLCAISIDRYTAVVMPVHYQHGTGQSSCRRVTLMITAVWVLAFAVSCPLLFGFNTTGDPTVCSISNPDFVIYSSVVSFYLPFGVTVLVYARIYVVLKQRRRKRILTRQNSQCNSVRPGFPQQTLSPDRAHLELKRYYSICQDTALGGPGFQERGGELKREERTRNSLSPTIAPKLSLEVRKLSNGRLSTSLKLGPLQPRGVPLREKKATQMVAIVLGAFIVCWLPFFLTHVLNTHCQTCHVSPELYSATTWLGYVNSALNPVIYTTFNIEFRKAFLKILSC
Assay: D3 receptor binding ([3H]YM 09151-2 displacement, COS cell pellets with recombinant receptor)
Details: 0.5 nM 3H-YM 09151-2; recombinant receptor in COS cells; nonspecific with 1 mM spiperone; text also says rat striatal homogenates
pKi: −log10 of the molar value. Where a name gives a salt, the structure may show the parent alone.
MEASUREMENT NAME: pKi

[
  {
    "COMPOUND": "Cn1c2ccccc2c2cc(C(=O)NCCCCN3CCN(c4cccc(Cl)c4Cl)CC3)ccc21 [Compound 3, hydrochloride]",
    "MEASUREMENT NAME": "pKi",
    "MEASURED NUMBER": 8.70
  },
  {
    "COMPOUND": "O=C(NCCCCN1CCN(c2cccc(Cl)c2Cl)CC1)c1ccc2[nH]c3c(c2c1)CCCC3 [Compound 1, hydrochloride]",
    "MEASUREMENT NAME": "pKi",
    "MEASURED NUMBER": 9.30
  },
  {
    "COMPOUND": "O=C(NCCCCN1CCN(c2cccc(Cl)c2Cl)CC1)c1ccc2c(c1)[nH]c1ccccc12 [Compound 4, hydrochloride]",
    "MEASUREMENT NAME": "pKi",
    "MEASURED NUMBER": 9.00
  }
]
